So I've got a bunch of compounds here, and I need their CC50 values.
- System: Vero
- experimentDescription: Compound was tested for cytotoxicity in Vero cells (concentration required to reduce the OD value by 50% of the control)
- Format: functional
- setupConditions: Chlorocebus sabaeus

Record "CC(=O)OCC(CCn1cnc2cnc(N)nc21)COC(C)=O" has Vero CC50 equal to > 500 µM

Log: Vero, compound COC(=O)OCC(CO)CCn1cnc2cnc(N)nc21 (stereo unspecified) , CC50 = > 500 µM

Result for CCCCOC(=O)OCC(CO)CCn1cnc2cnc(N)nc21 (stereo unspecified) , tested on Vero, CC50: > 500 µM

Lab entry: Vero assay, compound CCOC(=O)OCC(CO)CCn1cnc2cnc(N)nc21 (stereo unspecified) , CC50 = > 500 µM

Entry CC(C)CCOC(=O)OCC(CO)CCn1cnc2cnc(N)nc21 (stereo unspecified) , Vero data, CC50 value: 357 µM

So the reported CC50 for CCCOC(=O)OCC(CO)CCn1cnc2cnc(N)nc21 (stereo unspecified) , on Vero, turned out to be > 500 µM

Per the reported Vero data, "Nc1nc2c(ncn2CCC(CO)CO)c(=O)[nH]1" has CC50 of > 500 µM

# CC50 measured on Vero for item CC(C)COC(=O)OCC(CO)CCn1cnc2cnc(N)nc21 (stereo unspecified) = > 500 µM

Here "Nc1ncc2ncn(CCC3COC(=O)OC3)c2n1" was tested on Vero, and its CC50 came to > 500 µM

The value of CC50 recorded for CC(C)OC(=O)OCC(CO)CCn1cnc2cnc(N)nc21 (stereo unspecified) when tested on Vero reads > 500 µM

The recorded CC50 with Vero for CCCCCOC(=O)OCC(CO)CCn1cnc2cnc(N)nc21 (stereo unspecified) was > 500 µM
